Test system: Danio rerio larvae (5 dpf)
Assay details: difference in combined optomotor response to red, green and blue moving lines vs DMSO (percentage points); higher = stronger optomotor response than DMSO
Measurement setup: 10 µM; exposure time 6 h
Counter-ions that a name gives are not always drawn.
Endpoint label: difference

Task item: Look up difference with Danio rerio larvae (5 dpf) for this molecule: CC(C(=O)O)c1ccc(-c2ccccc2)c(F)c1 (racemic) [(±)-Flurbiprofen]
Reply: -3.74

Task item: Notebook: pull reported difference for Danio rerio larvae (5 dpf), entry CN(CCOc1ccc(NS(C)(=O)=O)cc1)CCc1ccc(NS(C)(=O)=O)cc1 [Dofetilide]
Reply: 7.94

Task item: Return difference measured with Danio rerio larvae (5 dpf) given this molecule: Cc1ccccc1C(=O)Nc1ccc(C(=O)N2CCCC(O)c3cc(Cl)ccc32)c(C)c1 (centres undefined) [Tolvaptan]
Reply: 5.47

Task item: Write down the reported difference of Cc1ccc(Sc2ccccc2N2CCNCC2)c(C)c1 [Vortioxetine (hydrobromide)] , test system: Danio rerio larvae (5 dpf).
Reply: -11.4

###

Tested on: Danio rerio larvae (5 dpf)
Assay details: difference in combined optomotor response to red, green and blue moving lines vs DMSO (percentage points); higher = stronger optomotor response than DMSO
Measurement setup: 10 µM; exposure time 6 h
Structures can show the parent of a compound that is named as a salt.
Overview of reported difference across a group of compounds:

Compound	difference
CC(=O)NS(=O)(=O)c1ccc(N)cc1 [Sulfacetamide (sodium salt)]	7.06
CC1=C(/C=C/C(C)=C/C=C/C(C)=C/C(=O)O)C(C)(C)CCC1 [all-trans Retinoic Acid]	6.48

Task item: # lookup: difference of CO[C@@]1(NC(=O)C2SC(=C(C(N)=O)C(=O)O)S2)C(=O)N2C(C(=O)O)=C(CSc3nnnn3C)CS[C@@H]21 (some centres undefined) [Cefotetan (sodium salt)]
Reply: -1.08

Task item: // difference lookup, key: CCNC(=O)[C@@H]1CCCN1C(=O)[C@H](CCCNC(=N)N)NC(=O)[C@H](CC(C)C)NC(=O)[C@@H](CC(C)C)NC(=O)[C@H](Cc1ccc(O)cc1)NC(=O)[C@H](CO)NC(=O)[C@H](Cc1c[nH]c2ccccc12)NC(=O)[C@H](Cc1c[nH]cn1)NC(=O)[C@@H]1CCC(=O)N1 [Leuprorelin (acetate)]
Reply: 4.92

###

# Lookup of reported difference in habituation to acoustic stimuli keyed by entry
Tested on: Danio rerio larvae (5 dpf)
Assay details: difference in habituation to acoustic stimuli vs DMSO (percentage points); higher = more habituation than DMSO
Measurement setup: 10 µM; exposure time 6 h

Below, each entry is followed by its recorded difference in habituation to acoustic stimuli result.
> print(dat)
                                   molecule          measurement.target  measured.value
1  CC(C)(C)NC(=O)[C@H]1CC[C@H]2[C@@H]3CC[C@H]4NC(=O)C=C[C@]4(C)[C@H]3CC[C@]12C [Finasteride]  Danio rerio larvae (5 dpf)           -0.24
2  CCN(CCO)CCCC(C)Nc1ccnc2cc(Cl)ccc12 (configuration not stated) [Hydroxychloroquine (sulfate)]  Danio rerio larvae (5 dpf)            4.81
3  CN(C)C/C=C/C(=O)Nc1cc2c(Nc3ccc(F)c(Cl)c3)ncnc2cc1O[C@H]1CCOC1 [Afatinib (maleate)]  Danio rerio larvae (5 dpf)            5.63
4  COc1cc2ncnc(Nc3ccc(F)c(Cl)c3)c2cc1NC(=O)/C=C/CN1CCCCC1  Danio rerio larvae (5 dpf)          -0.587

Task item: Could you share which difference in habituation to acoustic stimuli value was measured for COCCCC/C(=N\OCCN)c1ccc(C(F)(F)F)cc1 [Fluvoxamine (maleate)] ?
Reply: -3.73

Task item: Using the record for COC(=O)c1ccc2c(c1)NC(=O)/C2=C(\Nc1ccc(N(C)C(=O)CN2CCN(C)CC2)cc1)c1ccccc1 , report its difference in habituation to acoustic stimuli.
Reply: 1.6

// data source = the supplement of paper PMC10515830
